Reference for the values: the supplement of paper PMC8149375

Quick reference for AUC of dose-response viability curve among some compounds
- Tested on: CAKI-1
- experiment.summary: AUC of dose-response viability curve, drug + dasatinib, normalised to DMSO (arbitrary (AUC of normalised viability)); higher = less growth inhibition
- reported.conditions: treatment: drug + dasatinib (fixed dose, not stated); 5 days
When you answer, write just the number.

Please review the following examples before continuing.
1. C=CC(=O)Nc1cccc(Sc2nc(Nc3ccc(N4CCN(C)CC4)cc3)ncc2Cl)c1 [WZ8040] + Cc1nc(Nc2ncc(C(=O)Nc3c(C)cccc3Cl)s2)cc(N2CCN(CCO)CC2)n1 : 1.96
2. CC(C)(C)Cn1c(N)nc2ccc(-c3[nH]c(C(C)(C)C)nc3-c3ccc(F)cc3)nc21.CS(=O)(=O)O.CS(=O)(=O)O + Cc1nc(Nc2ncc(C(=O)Nc3c(C)cccc3Cl)s2)cc(N2CCN(CCO)CC2)n1 : 2.18
3. COc1ccc(-c2ccc3c(N4CCOCC4)nc(N4C[C@@H](C)O[C@@H](C)C4)nc3n2)cc1CO + Cc1nc(Nc2ncc(C(=O)Nc3c(C)cccc3Cl)s2)cc(N2CCN(CCO)CC2)n1 : 1.56

For the next question, use this compound.
I have this compound here, Cc1csc(-c2nnc(Nc3ccc(Oc4ncccc4-c4ccnc(N)n4)cc3)c3ccccc23)c1 [AMG 900] + Cc1nc(Nc2ncc(C(=O)Nc3c(C)cccc3Cl)s2)cc(N2CCN(CCO)CC2)n1 , and I need its recorded AUC of dose-response viability curve.
1.32

* * *

- System: 786-O
- experiment.summary: AUC of dose-response viability curve, drug + dasatinib, normalised to DMSO (arbitrary (AUC of normalised viability)); higher = less growth inhibition
- reported.conditions: treatment: drug + dasatinib (fixed dose, not stated); 5 days
reported.metric: AUC of dose-response viability curve
Output spec: single numeric token, no unit.

Field: example entries. Status: answers known.
1) CNC(=O)c1ccccc1Nc1nc(Nc2ccc(N3CCOCC3)cc2OC)ncc1Cl [NVP-TAE226] + Cc1nc(Nc2ncc(C(=O)Nc3c(C)cccc3Cl)s2)cc(N2CCN(CCO)CC2)n1 : 1.1
2) N#Cc1c(O)c2c(-c3ccc(-c4ccccc4O)cc3)csc2[nH]c1=O + Cc1nc(Nc2ncc(C(=O)Nc3c(C)cccc3Cl)s2)cc(N2CCN(CCO)CC2)n1 : 2.63

Under 786-O: AUC of dose-response viability curve value of Cc1cnc(Nc2ccc(OCCN3CCCC3)cc2)nc1Nc1cccc(S(=O)(=O)NC(C)(C)C)c1 + Cc1nc(Nc2ncc(C(=O)Nc3c(C)cccc3Cl)s2)cc(N2CCN(CCO)CC2)n1 ?
1.73

Check CS(=O)(=O)CCNCc1ccc(-c2ccc3ncnc(Nc4ccc(OCc5cccc(F)c5)c(Cl)c4)c3c2)o1.Cc1ccc(S(=O)(=O)O)cc1.Cc1ccc(S(=O)(=O)O)cc1 [Lapatinib Ditosylate (Tykerb)] + Cc1nc(Nc2ncc(C(=O)Nc3c(C)cccc3Cl)s2)cc(N2CCN(CCO)CC2)n1 too.
2.41

Thanks! And CNC(=O)c1cccc(-c2ccc3c(N4CCOC[C@@H]4C)nc(N4CCOC[C@@H]4C)nc3n2)c1 [AZD2014] + Cc1nc(Nc2ncc(C(=O)Nc3c(C)cccc3Cl)s2)cc(N2CCN(CCO)CC2)n1 ?
1.33

Please do the same for O=C1Nc2ccccc2/C1=C1/Nc2ccccc2C1=O [Indirubin] + Cc1nc(Nc2ncc(C(=O)Nc3c(C)cccc3Cl)s2)cc(N2CCN(CCO)CC2)n1 as well.
1.76

And what about the compound Cc1cc(Nc2nc(N[C@@H](C)c3ccc(F)cc3)c(C#N)cc2F)n[nH]1 [AZ 960] + Cc1nc(Nc2ncc(C(=O)Nc3c(C)cccc3Cl)s2)cc(N2CCN(CCO)CC2)n1 ?
1.41

Same question for O=C(NOCC1CC1)c1ccc(F)c(F)c1Nc1ccc(I)cc1Cl + Cc1nc(Nc2ncc(C(=O)Nc3c(C)cccc3Cl)s2)cc(N2CCN(CCO)CC2)n1 please.
2.46

Entry COc1cc2c(Nc3ccc(NC(=O)c4ccccc4)cc3)ncnc2cc1OCCCN1CCOCC1 + Cc1nc(Nc2ncc(C(=O)Nc3c(C)cccc3Cl)s2)cc(N2CCN(CCO)CC2)n1 please
2.13

* * *

- Test system: UO-31
- experiment.summary: AUC of dose-response viability curve, drug alone (arbitrary (AUC of normalised viability)); higher = less growth inhibition
- reported.conditions: treatment: drug alone; 5 days
Entries whose AUC of dose-response viability curve is below 3 take Satisfied; entries at or above 3 take Not satisfied.

# count of solved cases: 10
1) COc1cc2nccc(Oc3ccc(NC(=O)Nc4ccc(F)cc4F)c(F)c3)c2cc1OC [Ki8751] : Satisfied
2) CC(=O)c1c(C)c2cnc(Nc3ccc(N4CCNCC4)cn3)nc2n(C2CCCC2)c1=O.Cl : Not satisfied
3) CCO.N#CC(=C(/N)Sc1ccccc1N)/C(C#N)=C(\N)Sc1ccccc1N [U0126-EtOH] : Not satisfied
4) N#CC[C@H](C1CCCC1)n1cc(-c2ncnc3[nH]ccc23)cn1 : Not satisfied
5) O=C1Nc2ccccc2/C1=C1/Nc2ccccc2C1=O [Indirubin] : Satisfied
6) CN1CCN(c2nc(C3=C(c4c[nH]c5ccccc45)C(=O)NC3=O)c3ccccc3n2)CC1 [Sotrastaurin (AEB071)] : Not satisfied
7) C=CC(=O)N1CCC[C@@H](n2nc(-c3ccc(Oc4ccccc4)cc3)c3c(N)ncnc32)C1 : Not satisfied
8) O=C1NC(=O)[C@@H](c2cn3c4c(cccc24)CCC3)[C@@H]1c1c[nH]c2ccccc12 [ARQ 197 (Tivantinib)] : Not satisfied
9) Oc1cccc(-c2nc(N3CCOCC3)c3oc4ncccc4c3n2)c1 [PI-103] : Satisfied
10) CCC(=O)N1CCN(c2ccc(-n3c(=O)ccc4cnc5ccc(-c6cnc7ccccc7c6)cc5c43)cc2C(F)(F)F)CC1 [Torin 1] : Satisfied

In plain terms, does CN(C)C1CCN(C(=O)c2ccc(NC(=O)Nc3ccc(-c4nc(N5CCOCC5)nc(N5CCOCC5)n4)cc3)cc2)CC1 come in under 3 for AUC of dose-response viability curve?
Satisfied

Try the molecule CCn1c(N)c(C(=O)NC)c(=O)c2ccc(C#C[C@@](C)(O)COC)nc21
Not satisfied

Next record, please: Cc1ccc(-n2nc(C(C)(C)C)cc2NC(=O)Nc2ccc(OCCN3CCOCC3)c3ccccc23)cc1 [BIRB 796 (Doramapimod)]
Not satisfied

Okay, and O=C1NC(=O)/C(=C/c2ccc(-c3ccc(F)cc3O)o2)S1 ?
Not satisfied

Now give it for CCc1cc2c(cc1N1CCC(N3CCOCC3)CC1)C(C)(C)c1[nH]c3cc(C#N)ccc3c1C2=O too.
Not satisfied

* * *

# AUC of dose-response viability curve per entry
- Test system: A498
- experiment.summary: AUC of dose-response viability curve, drug + dasatinib, normalised to DMSO (arbitrary (AUC of normalised viability)); higher = less growth inhibition
- reported.conditions: treatment: drug + dasatinib (fixed dose, not stated); 5 days
Number only, please.

1. CCOc1cc2ncc(C#N)c(Nc3ccc(F)c(Cl)c3)c2cc1NC(=O)/C=C/CN(C)C [Pelitinib (EKB-569)] + Cc1nc(Nc2ncc(C(=O)Nc3c(C)cccc3Cl)s2)cc(N2CCN(CCO)CC2)n1 [dasatinib] : 2.55
2. O=c1sn(-c2cccc3ccccc23)c(=O)n1Cc1ccccc1 [Tideglusib] + Cc1nc(Nc2ncc(C(=O)Nc3c(C)cccc3Cl)s2)cc(N2CCN(CCO)CC2)n1 [dasatinib] : 3.01
3. CN1CCN(C2CCN(C(=O)Nc3cc(Oc4ccc(NC(=O)C5(C(=O)Nc6ccc(F)cc6)CC5)c(F)c4)ccn3)CC2)CC1 [Golvatinib (E7050)] + Cc1nc(Nc2ncc(C(=O)Nc3c(C)cccc3Cl)s2)cc(N2CCN(CCO)CC2)n1 [dasatinib] : 3.93

Shifting focus to the compound that follows.
Hi! What's the reported AUC of dose-response viability curve for COc1cc2nccc(Oc3ccc(NC(=O)NC4CC4)c(Cl)c3)c2cc1C(N)=O [E7080 (Lenvatinib)] + Cc1nc(Nc2ncc(C(=O)Nc3c(C)cccc3Cl)s2)cc(N2CCN(CCO)CC2)n1 [dasatinib] on A498?
3.47

* * *

- Test system: CAKI-1
- experiment.summary: GI50 of drug in presence of dasatinib; higher = less potent
- reported.conditions: treatment: drug + dasatinib (fixed dose, not stated); 5 days
reported.metric: GI50 of drug (µM)
API: value field is a number in µM; no unit string.

1) Nc1nccc(Oc2ccc(NC(=O)c3c[nH]cc(-c4ccc(F)cc4)c3=O)cc2F)c1Cl + Cc1nc(Nc2ncc(C(=O)Nc3c(C)cccc3Cl)s2)cc(N2CCN(CCO)CC2)n1 [dasatinib] : 4.03

Name the reported GI50 of drug value associated with the compound Cc1ccc(NC(=O)c2ccc(CN3CCN(C)CC3)cc2)cc1Nc1nccc(-c2cccnc2)n1 [Imatinib (Gleevec)] + Cc1nc(Nc2ncc(C(=O)Nc3c(C)cccc3Cl)s2)cc(N2CCN(CCO)CC2)n1 [dasatinib]
8.89

Also need O=C(NOCC1CC1)c1ccc(F)c(F)c1Nc1ccc(I)cc1Cl + Cc1nc(Nc2ncc(C(=O)Nc3c(C)cccc3Cl)s2)cc(N2CCN(CCO)CC2)n1 [dasatinib] , thanks.
1.48

Okay, and CN1CC[C@H](c2c(O)cc(O)c3c(=O)cc(-c4ccccc4Cl)oc23)[C@H](O)C1.Cl [Flavopiridol hydrochloride] + Cc1nc(Nc2ncc(C(=O)Nc3c(C)cccc3Cl)s2)cc(N2CCN(CCO)CC2)n1 [dasatinib] ?
0.0336
